system: Yap1 mRNA; test: Antisense inhibition of human Yap1 in A-431 cells by cEt gapmers, single dose (Example 2, RTS4814); type: cell-based; settings: Table 21; Yap1 mRNA, percent of untreated control; 3-10-3 cEt gapmers targeting SEQ ID NO.: 1 and 2
Strand notation (5' to 3'): a small letter for the sugar, then the base; units joined by * are phosphorothioate-linked, units joined directly phosphodiester-linked; [ ] holds rarer units or linkages, { } end groups; capitals alone tell only the bases. k = constrained ethyl (cEt); [5mC] = 5-methylcytosine; d = 2'-deoxy (DNA)
Rule: TRUE for YAP1 (% UTC) not less than 20 % UTC, FALSE for anything less.

Sample answers from the record:
{"Substance": "1075367 (k[5mC]*kA*kT*dT*dA*d[5mC]*dT*dT*dA*dG*dG*dG*d[5mC]*kT*kT*kA; antisense) [Compound 1075367]", "Study system": "Yap1 mRNA", "Label value": "FALSE"}
{"Substance": "1075655 (k[5mC]*kT*kA*dT*dT*dA*dA*dG*dA*d[5mC]*dG*dA*dA*kT*k[5mC]*k[5mC]; antisense) [Compound 1075655]", "Study system": "Yap1 mRNA", "Label value": "TRUE"}
{"Substance": "1076167 (kA*kA*kA*dT*dT*dT*dA*d[5mC]*dA*d[5mC]*d[5mC]*dA*d[5mC]*k[5mC]*kG*k[5mC]; antisense) [Compound 1076167]", "Study system": "Yap1 mRNA", "Label value": "TRUE"}

Prompt line: Given the entry 1076103 (kG*k[5mC]*kT*dT*dA*dA*d[5mC]*dA*dA*dA*dT*d[5mC]*dA*kG*k[5mC]*k[5mC]; antisense) [Compound 1076103] , answer whether its YAP1 (% UTC) meets or surpasses 20 % UTC.
Response line: TRUE

Prompt line: Is YAP1 (% UTC) at least 20 % UTC? Consider 1075399 (antisense k[5mC]*kA*kT*dA*dT*dA*dT*dA*dT*dG*dG*d[5mC]*d[5mC]*k[5mC]*kT*kT) [Compound 1075399]
Response line: FALSE

Prompt line: Record 1075783 (k[5mC]*kT*kT*dA*dA*dT*dT*dT*dA*d[5mC]*d[5mC]*dT*dG*kA*kA*k[5mC]; antisense) [Compound 1075783] ; criterion: YAP1 (% UTC) no lower than 20 % UTC. Met?
Response line: TRUE
